# system_tested: T1, SNTB1, Q13884
# T1 sequence (Q13884 107-205, limits assumed, looked up): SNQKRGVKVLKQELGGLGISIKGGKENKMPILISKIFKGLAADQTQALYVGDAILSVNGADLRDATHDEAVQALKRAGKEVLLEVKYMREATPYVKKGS
# protocol_description: holdup assay
# Design: key: below the threshold = too weak to quantify, mostly under pKd 3.1 to 4
# conditions_used: plain residues with an end cap or a label only (N-terminal biotin on a linker: ado-ado)
recorded_endpoint: pKd

[[record]]
binder = "RQKEVRESKC [SCN8A, Q9UQD0]"
value = 4.99

[[record]]
binder = "EDPRVEVTQF [SLC22A9, Q8IVM8]"
value = "below the threshold"

[[record]]
binder = "KPGKGSETVV [FZD4, Q9ULV1]"
value = 4.78

[[record]]
binder = "EKCGKEFSEF [PRKACA, P17612]"
value = "below the threshold"

[[record]]
binder = "NISYRRESAI [KCNJ4, P48050]"
value = 4.03

[[record]]
binder = "MHIQEKGFHV [EPHA6, Q9UF33]"
value = "below the threshold"

[[record]]
binder = "SRSVVESDEL [MYPN, Q86TC9]"
value = "below the threshold"

[[record]]
binder = "PYPTADHMLA [JUP, P14923]"
value = "below the threshold"

[[record]]
binder = "QSYPSKHDYV [CLDN18, P56856]"
value = "below the threshold"

[[record]]
binder = "TGLWKHETTV [ADGRA3, Q8IWK6]"
value = 4.84

[[record]]
binder = "KKMLQRRTLL [OR8G1, Q15617]"
value = 3.64

[[record]]
binder = "ELSATVTTDC [TRIP6, Q15654]"
value = 4.34

[[record]]
binder = "GTGYDRKDYV [CLDN3, O15551]"
value = "below the threshold"

[[record]]
binder = "QLSFNTDTLC [ABCA2, Q9BZC7]"
value = 3.59

[[record]]
binder = "EIPAQSPTCV [FZD10, Q9ULW2]"
value = 3.75

[[record]]
binder = "EDGESWEYQI [TRPV6, Q9H1D0]"
value = "below the threshold"

[[record]]
binder = "PTPDLPQTRV [KLHDC7A, Q5VTJ3]"
value = 4.95

[[record]]
binder = "SLNANEVEWF [RNF130, Q86XS8]"
value = "below the threshold"

[[record]]
binder = "SFISKKEWYV [NECTIN1, Q15223]"
value = "below the threshold"

[[record]]
binder = "DRIQSCLSDA [SBF1, O95248]"
value = "below the threshold"

[[record]]
binder = "MQHQRTHTRV [ZSCAN30, Q86W11]"
value = 4.15

[[record]]
binder = "DFLSTFHIRI [CIB2, O75838]"
value = "below the threshold"

[[record]]
binder = "TNSRHGETTV [FZD2, Q14332]"
value = 4.75

[[record]]
binder = "LESTTVGTSV [KARS1, Q15046]"
value = 3.85

[[record]]
binder = "PYSESDDDWC [CACNA1A, O00555]"
value = "below the threshold"

[[record]]
binder = "PSVGSKKTVL [REELD1, A0A1B0GV85]"
value = 3.56

[[record]]
binder = "TRKRSGEAAV [PFKM, P08237]"
value = "below the threshold"

[[record]]
binder = "AQRARSPSDV [GPR12, P47775]"
value = "below the threshold"

[[record]]
binder = "VKRNSKETVV [MARCHF3, Q86UD3]"
value = 5.19

[[record]]
binder = "IDESKKEWLI [CNTNAP2, Q9UHC6]"
value = "below the threshold"

[[record]]
binder = "ARGPPRESEV [FAM110D, Q8TAY7]"
value = 5.12

[[record]]
binder = "RSSGGDDFWF [KCNV1, Q6PIU1]"
value = "below the threshold"

